- target-or-system: EBP (Homo sapiens, UniProt Q15125)
- Construct: HEK293T cells were utilized as the source of EBP enzyme; endogenous in cells
- Sequence (Q15125 whole entry): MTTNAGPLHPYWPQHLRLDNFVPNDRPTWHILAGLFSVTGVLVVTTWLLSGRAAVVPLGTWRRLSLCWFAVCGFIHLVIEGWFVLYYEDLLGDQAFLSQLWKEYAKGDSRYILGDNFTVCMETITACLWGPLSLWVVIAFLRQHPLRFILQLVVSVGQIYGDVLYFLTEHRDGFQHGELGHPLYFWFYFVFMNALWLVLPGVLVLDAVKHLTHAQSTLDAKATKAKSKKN
- test-details: EBP Functional Assay (EBP immunoaffinity LC-MS assay)
- condition-details: EBP enzyme from HEK293T cells; 30 min with inhibitor, then zymosterol-d5, 37° C., 4 h; percent conversion to dehydrolathosterol-d5 by LC-APCI MRM MS
pIC50: −log10 of the molar value.
quantity-kind: pIC50

INPUT: Quick one: pIC50 for Cc1nc(C(F)(F)F)ccc1S(=O)(=O)N1CC2(CN(C(C)C3CCOCC3)C2)C1 (racemic) [Example 153] ?
OUTPUT: > 7.00

INPUT: Quick one: pIC50 for CCc1nc(C(F)F)ccc1S(=O)(=O)N1CC2(C1)CN([C@H]1CC[C@](C)(O)CC1)C2 [Example 207] ?
OUTPUT: 5.40 to 6.60

INPUT: Quick one: pIC50 for O=S(=O)(c1ccc(C(F)(F)F)nc1C1CC1)N1CC2(CN(CC3COC3)C2)C1 [Example 209] ?
OUTPUT: 6.60 to 7.00

INPUT: Quick one: pIC50 for Cc1nc(Br)ccc1S(=O)(=O)N1CC2(CN(C3CCOCC3)C2)C1 [Example 67] ?
OUTPUT: 5.40 to 6.60

====

Exercise: state measured pIC50 for each of the compounds provided.
- target-or-system: EBP (Homo sapiens)
- Construct: HEK293T cells were utilized as the source of EBP enzyme; endogenous in cells
- test-details: EBP Functional Assay (EBP immunoaffinity LC-MS assay)
- condition-details: EBP enzyme from HEK293T cells; 30 min with inhibitor, then zymosterol-d5, 37° C., 4 h; percent conversion to dehydrolathosterol-d5 by LC-APCI MRM MS
pIC50: −log10 of the molar value.

INPUT: Which measured pIC50 belongs to CCSCCCN1CC2(C1)CN(S(=O)(=O)c1ccc(C(F)(F)F)nc1C)C2 , tested on EBP (Homo sapiens)?
OUTPUT: > 7.00

INPUT: Which measured pIC50 belongs to O=S(=O)(c1ccc(C2CC2)nc1C(F)(F)F)N1CC2(CN(C3CCOCC3)C2)C1 , tested on EBP (Homo sapiens)?
OUTPUT: > 7.00

INPUT: Which measured pIC50 belongs to COCCC1(CN2CC3(C2)CN(S(=O)(=O)c2ccc(C(F)(F)F)nc2C)C3)CCC1 , tested on EBP (Homo sapiens)?
OUTPUT: 6.60 to 7.00

INPUT: Which measured pIC50 belongs to Cc1nc(C2CC2(F)F)ccc1S(=O)(=O)N1CC2(CN(C3CCOCC3)C2)C1 (centres unmarked) , tested on EBP (Homo sapiens)?
OUTPUT: > 7.00

INPUT: Which measured pIC50 belongs to O=S(=O)(c1ccc(C(F)(F)F)nc1C(F)(F)F)N1CC2(CN(CC3COC3)C2)C1 , tested on EBP (Homo sapiens)?
OUTPUT: 5.40 to 6.60

INPUT: Which measured pIC50 belongs to CCc1cc(C(F)(F)F)ncc1S(=O)(=O)N1CC2(CN(C3CCC(C)(O)CC3)C2)C1 (single isomer, unassigned) [Example 128] , tested on EBP (Homo sapiens)?
OUTPUT: > 7.00

INPUT: Which measured pIC50 belongs to CCc1cc(C(F)(F)F)ncc1S(=O)(=O)N1CC2(CN(C3CC4(COC4)C3)C2)C1 , tested on EBP (Homo sapiens)?
OUTPUT: 5.40 to 6.60

INPUT: Which measured pIC50 belongs to Cc1nc(C(C)(F)F)ccc1S(=O)(=O)N1CC2(CN(C3CC4(COC4)C3)C2)C1 , tested on EBP (Homo sapiens)?
OUTPUT: 6.60 to 7.00
